Reference for the values: patent US10689331B2

Below, each entry is listed alongside its reported pIC50.
- measurement-target: UniProtKB P14902
- experiment-description: HEK Human IDO-1 inhibition assay (kynurenine readout, Ehrlich reagent, absorbance 490 nm)
- assay-setup: human IDO1/HEK293 cells, incubated 20 hours with compound; 500 nM reference standard = 100% inhibition
pIC50: −log10 of the molar value.

// solved cases for pIC50 follow
compound | measurement-target | reported-value
CCCC(Oc1ccc(N(CC(C)C)C2CCCCC2)c(NC(=O)Nc2ccc(Cl)cc2F)c1)C(=O)O (single isomer, unassigned) [Example 85-1] | UniProtKB P14902 | > 8.30
CC(C)CN(c1ccc(OCC(=O)O)cc1NC(=O)Nc1ccc(Cl)cc1F)C1CCC(O)CC1 (stereo not shown) [Example 149] | UniProtKB P14902 | ≤ 7.00

INPUT: Param item = CCC(Oc1ccc(N(CC(C)C)C2CCCCC2)c(NC(=O)Nc2ccc(Cl)cc2F)c1)C(=O)O (single isomer, unassigned) [Example 80-2] ; retrieve measured pIC50.
OUTPUT: > 8.30

INPUT: What value of pIC50 has been reported for the following compound? CC(C)CN(c1ccc(OC(C)C(=O)NS(=O)(=O)C2CC2)cc1NC(=O)Cc1ccc(Cl)c(F)c1)C1CCCCC1 (racemic)
OUTPUT: ≤ 7.00

INPUT: # get_value(readout='pIC50', item= CCCN(Cc1ccccc1)c1ccc(OCC(=O)O)cc1NC(=O)Nc1ccc(C(F)(F)F)cc1 )
OUTPUT: ≤ 7.00

INPUT: Which value of pIC50 has been reported for CC(C)CN(c1ccc(OCC(=O)NS(=O)(=O)C(C)(C)C)cc1NC(=O)Nc1ccc(Cl)cc1F)C1CCCCC1 in the records?
OUTPUT: > 8.30

INPUT: Quick one: pIC50 for CC(C)CN(c1ccc(OCC(=O)O)cc1NC(=O)Nc1ccc(Cl)cc1F)C1CCCCC1 ?
OUTPUT: > 8.30

====

Recorded IC50, one value per entry.
- measurement-target: human IDO1 (Homo sapiens, UniProt P14902)
- Sequence (P14902 whole entry): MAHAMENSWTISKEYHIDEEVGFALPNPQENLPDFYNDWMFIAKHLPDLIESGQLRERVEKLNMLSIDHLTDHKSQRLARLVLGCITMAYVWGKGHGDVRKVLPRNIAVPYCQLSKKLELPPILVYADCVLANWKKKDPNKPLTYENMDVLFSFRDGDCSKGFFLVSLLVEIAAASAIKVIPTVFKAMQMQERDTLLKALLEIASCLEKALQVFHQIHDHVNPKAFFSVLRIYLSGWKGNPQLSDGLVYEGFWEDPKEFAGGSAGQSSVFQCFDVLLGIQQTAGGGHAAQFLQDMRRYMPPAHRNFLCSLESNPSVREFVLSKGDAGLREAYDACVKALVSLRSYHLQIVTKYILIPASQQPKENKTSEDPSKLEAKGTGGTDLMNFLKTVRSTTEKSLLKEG
- experiment-description: HEK Human IDO-1 inhibition assay (kynurenine readout, Ehrlich reagent, absorbance 490 nm)
- assay-setup: human IDO1/HEK293 cells, incubated 20 hours with compound; 500 nM reference standard = 100% inhibition

Some compounds with recorded IC50:
compound | test-readout | reported-value
CC(C)CN(c1ccc(OCC(=O)O)cc1NC(=O)Cc1ccc(Cl)c(F)c1)C1CCCCC1 [Example 54] | IC50 | ≥ 100 nM
CC(C)CN(c1cc(F)c(OCC(=O)O)cc1NC(=O)Nc1cc(F)ccc1F)C1CCCCC1 [Example 126] | IC50 | < 5 nM
CC(C)CN(c1ccc(OCC(=O)NS(=O)(=O)N(C)C)cc1NC(=O)Nc1ccc(Cl)cc1F)C1CCCCC1 [Example 46] | IC50 | < 5 nM
Cc1ccc(N(C)C(=O)Nc2cc(OCC(=O)O)ccc2N(CC(C)C)C2CCCCC2)cc1 [Example 40] | IC50 | ≥ 100 nM
C=C(C)CN(c1ccc(OC(C)C(=O)O)cc1NC(=O)Nc1ccc(Cl)cc1F)C1CCOCC1 (single isomer, unassigned) [Example 139-1] | IC50 | < 100 nM

INPUT: Could you share what IC50 was measured for Cc1ccc(NC(=O)Nc2cc(OC(C)C(=O)O)ccc2N(CC(C)C)C2CCCCC2)c(F)c1 (racemic) [racemic 65] , tested on human IDO1 (Homo sapiens, UniProt P14902)?
OUTPUT: < 5 nM

INPUT: IC50 of CC(C)CN(c1ccc(OCC(=O)O)cc1NC(=O)Nc1ccc(Cl)cc1F)C1COC1 [Example 147] on human IDO1 (Homo sapiens, UniProt P14902)?
OUTPUT: ≥ 100 nM
